Numbers sourced from patent US8338414B2.

tested on: mouse spleen cells; experiment: Proliferation inhibition assay for mouse spleen cells; format: cell-based; conditions: 72 h, LPS 100 μg/mL, 3 days, Alamar Blue, read-out: Inhibition of LPS response
pIC50: −log10 of the molar value.
Consider the following compounds and their measured pIC50 readings.
PROPERTY_NAME: pIC50

> print(dat)
                              line.notation  recorded.measurement
1  CC1(C)CN(c2nc(N3CCOCC3)nc(-n3c(C(F)F)nc4ccc(N)cc43)n2)CCO1          7.00 to 9.00
2  CC1(C)CN(c2cc(N3CCOCC3)nc(-n3c(C(F)F)nc4c(O)cccc43)n2)CCO1                ≥ 9.00
3  O=C1CCN(c2nc(N3CCOCC3)nc(-n3c(C(F)F)nc4ccccc43)n2)CCN1          5.00 to 7.00
4  CC1(C)COCCN1c1cc(N2CCOCC2)nc(-n2c(C(F)F)nc3c(O)cccc32)n1                ≥ 9.00
